assayed.system: P-glycoprotein (P-gp) (Homo sapiens (Human), UniProt P08183)
Sequence (P08183 whole entry): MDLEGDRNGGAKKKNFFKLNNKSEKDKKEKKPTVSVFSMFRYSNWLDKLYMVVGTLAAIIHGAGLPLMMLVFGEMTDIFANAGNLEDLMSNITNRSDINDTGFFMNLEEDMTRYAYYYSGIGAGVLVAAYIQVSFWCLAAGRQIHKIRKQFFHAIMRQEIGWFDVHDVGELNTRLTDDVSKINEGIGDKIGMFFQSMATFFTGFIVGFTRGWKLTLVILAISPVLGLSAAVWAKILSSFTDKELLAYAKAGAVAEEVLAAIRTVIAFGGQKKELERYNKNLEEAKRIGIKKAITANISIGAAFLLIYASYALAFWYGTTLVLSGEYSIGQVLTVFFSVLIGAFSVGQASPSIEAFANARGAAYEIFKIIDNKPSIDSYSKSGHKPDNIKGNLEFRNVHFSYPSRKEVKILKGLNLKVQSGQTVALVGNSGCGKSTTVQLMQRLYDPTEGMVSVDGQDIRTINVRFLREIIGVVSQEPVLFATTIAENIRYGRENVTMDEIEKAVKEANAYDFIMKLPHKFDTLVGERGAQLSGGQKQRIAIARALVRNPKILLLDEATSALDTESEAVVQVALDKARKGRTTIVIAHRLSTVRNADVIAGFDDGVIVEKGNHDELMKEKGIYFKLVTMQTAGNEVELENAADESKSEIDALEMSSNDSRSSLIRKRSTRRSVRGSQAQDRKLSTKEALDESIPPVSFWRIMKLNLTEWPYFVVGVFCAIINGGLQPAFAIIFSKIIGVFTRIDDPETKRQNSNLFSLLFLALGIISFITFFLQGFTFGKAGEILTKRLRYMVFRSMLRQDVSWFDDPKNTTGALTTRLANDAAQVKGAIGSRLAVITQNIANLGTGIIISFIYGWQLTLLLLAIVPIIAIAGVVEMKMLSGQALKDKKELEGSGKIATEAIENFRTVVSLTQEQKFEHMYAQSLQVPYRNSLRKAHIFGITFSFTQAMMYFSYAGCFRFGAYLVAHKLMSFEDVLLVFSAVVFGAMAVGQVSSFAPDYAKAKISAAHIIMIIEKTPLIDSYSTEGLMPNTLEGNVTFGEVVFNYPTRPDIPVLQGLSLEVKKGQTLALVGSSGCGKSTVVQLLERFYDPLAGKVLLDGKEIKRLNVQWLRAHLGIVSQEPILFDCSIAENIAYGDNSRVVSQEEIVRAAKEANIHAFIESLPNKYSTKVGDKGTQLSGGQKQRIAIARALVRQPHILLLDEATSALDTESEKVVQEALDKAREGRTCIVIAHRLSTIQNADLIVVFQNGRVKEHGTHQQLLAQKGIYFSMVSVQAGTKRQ
test.name: P-gp transport, experimental BA/AB ratio, human
Format: in vitro ADME
condition.parameters: LLC-PK1, 1 μM substrate concentration
# label = YES if efflux ratio at 1 μM < 1 else NO

>>> answer_label("CN(C)c1nc(C(=O)N[C@@H](c2ccc(C(F)F)cc2)C(C)(C)C)cc(=O)[nH]1 [Example 60]")
"YES"
>>> answer_label("C[C@@H](NC(=O)c1cc(=O)[nH]c(N2Cc3cncnc3C2)n1)c1ccc(C(F)(F)F)cc1 [Example 161]")
"NO"
>>> answer_label("CO[C@H]1CCN(c2nc(C(=O)N[C@@H](c3ccc(C(F)(F)F)cc3)C(C)(C)C)cc(=O)[nH]2)C1 [Example 170]")
"NO"
>>> answer_label("CCC(C)(NC(=O)c1cc(=O)[nH]c(N(C)C)n1)c1ccc(C(F)(F)F)cc1F (single isomer, unassigned) [Example 130]")
"YES"
>>> answer_label("CC[C@@H](NC(=O)c1cc(=O)[nH]c(N(C)C)n1)c1ccc(SC(F)(F)F)cc1 [Example 88]")
"YES"
>>> answer_label("CN(C)c1nc(C(=O)N[C@@H](c2ccc(C(F)(F)F)cc2)C2CC2)cc(=O)[nH]1 [Example 108]")
"YES"
>>> answer_label("CN(C)c1nc(C(=O)NC(c2ccc(S(F)(F)(F)(F)F)cc2F)C(C)(C)C)cc(=O)[nH]1 (single isomer, unassigned) [Example 128]")
"NO"
>>> answer_label("CN(C)c1nc(C(=O)N[C@@H](c2ccc(C(F)(F)F)c(F)c2)C(C)(C)C)cc(=O)[nH]1 [Example 102]")
"NO"
>>> answer_label("CNc1nc(C(=O)N[C@H](C)c2ccc(SC(F)(F)F)cc2)cc(=O)[nH]1 [Example 144]")
"NO"
>>> answer_label("C[C@@H](NC(=O)c1cc(=O)[nH]c(N(C)C)n1)c1ccc(SC(F)(F)F)cc1 [Example 143]")
"YES"
>>> answer_label("CO[C@@H]1CCN(c2nc(C(=O)N[C@@H](c3ccc(C(F)(F)F)cc3)C(C)(C)C)cc(=O)[nH]2)C1 [Example 171]")
"NO"
>>> answer_label("CN(C)c1nc(C(=O)NC2(c3ccc(C(F)(F)F)c(F)c3)CC2)cc(=O)[nH]1 [Example 94]")
"YES"
>>> answer_label("CC(C)[C@@H](NC(=O)c1cc(=O)[nH]c(N)n1)c1ccc(SC(F)(F)F)cc1 [Example 154]")
"NO"
